molecular target: T1, βTrCP (tag cleaved and complexed with Skp1) (UniProt Q9Y297 175-605; P63208 1-163); test: FP competition vs fluorescein-IκB peptide
T1 construct: Protein of the FP assay (0.035 µM); also called Beta Transducin repeat-containing protein; βTrCP/Skp1
T1 sequence (Q9Y297 175-605, chain 1 of 2): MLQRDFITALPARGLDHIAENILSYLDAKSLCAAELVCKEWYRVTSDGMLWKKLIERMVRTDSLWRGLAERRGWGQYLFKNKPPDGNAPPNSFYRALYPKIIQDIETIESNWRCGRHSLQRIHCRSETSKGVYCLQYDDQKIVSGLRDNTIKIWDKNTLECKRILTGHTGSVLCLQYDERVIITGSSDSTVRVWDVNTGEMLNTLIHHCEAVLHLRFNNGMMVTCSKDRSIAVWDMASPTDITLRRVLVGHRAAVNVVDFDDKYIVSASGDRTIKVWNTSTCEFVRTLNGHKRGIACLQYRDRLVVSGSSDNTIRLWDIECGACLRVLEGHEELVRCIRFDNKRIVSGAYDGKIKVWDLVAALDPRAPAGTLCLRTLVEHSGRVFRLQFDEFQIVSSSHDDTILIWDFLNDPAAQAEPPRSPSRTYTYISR
T1 sequence (P63208 whole entry, chain 2 of 2): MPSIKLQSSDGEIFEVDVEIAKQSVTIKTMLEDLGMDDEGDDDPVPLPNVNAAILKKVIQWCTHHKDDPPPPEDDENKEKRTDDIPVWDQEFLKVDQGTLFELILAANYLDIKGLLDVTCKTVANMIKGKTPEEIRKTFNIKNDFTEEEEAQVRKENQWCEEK
Starred links: 1 amine or outer side, 2 acyl side, 3 side chain; linkers in the order of their positions; H or OH if unused. Non-standard residues stand in square brackets, D forms with d. Phe(4-NO2) = N[C@@H](Cc1ccc([N+](=O)[O-])cc1)C(=O)O; Phe(3-F) = N[C@@H](Cc1cccc(F)c1)C(=O)O; 1Nal = N[C@@H](Cc1cccc2ccccc12)C(=O)O; Suc = O=C(CCC(=O)[*:2])[*:1]
Test readout: pIC50
Entry type: numeric. Quantity: pIC50, the -log10 of concentration in molar units.

### Prompt Query: pIC50; subject: Suc-EGYF-NH2 [Suc-EGYF-NH2]
### Response 4.51

### Prompt Suc-EG[1Nal][Phe(4-NO2)]E-NH2 [Suc-EG-1Nal-F(4NO2)-E-NH2] ?
### Response 4.17

### Prompt Suc-EGY[Phe(4-NO2)]-NH2 (SMILES NC(=O)[C@H](Cc1ccc([N+](=O)[O-])cc1)NC(=O)[C@H](Cc1ccc(O)cc1)NC(=O)CNC(=O)[C@H](CCC(=O)O)NC(=O)CCC(=O)O) [Suc-EGY-F(4NO2)-NH2] ?
### Response 4.04

### Prompt Suc-QGYF-NH2 (SMILES NC(=O)CC[C@H](NC(=O)CCC(=O)O)C(=O)NCC(=O)N[C@@H](Cc1ccc(O)cc1)C(=O)N[C@@H](Cc1ccccc1)C(N)=O) [Suc-QGYF-NH2] ?
### Response 4.31

### Prompt Suc-EGY[Phe(3-F)]-NH2 (SMILES NC(=O)[C@H](Cc1cccc(F)c1)NC(=O)[C@H](Cc1ccc(O)cc1)NC(=O)CNC(=O)[C@H](CCC(=O)O)NC(=O)CCC(=O)O) [Suc-EGY-F(3F)-NH2] ?
### Response 4.04
